Target: NGalNAc-T1 (Homo sapiens)
Sequence (Q76KP1 62-1039): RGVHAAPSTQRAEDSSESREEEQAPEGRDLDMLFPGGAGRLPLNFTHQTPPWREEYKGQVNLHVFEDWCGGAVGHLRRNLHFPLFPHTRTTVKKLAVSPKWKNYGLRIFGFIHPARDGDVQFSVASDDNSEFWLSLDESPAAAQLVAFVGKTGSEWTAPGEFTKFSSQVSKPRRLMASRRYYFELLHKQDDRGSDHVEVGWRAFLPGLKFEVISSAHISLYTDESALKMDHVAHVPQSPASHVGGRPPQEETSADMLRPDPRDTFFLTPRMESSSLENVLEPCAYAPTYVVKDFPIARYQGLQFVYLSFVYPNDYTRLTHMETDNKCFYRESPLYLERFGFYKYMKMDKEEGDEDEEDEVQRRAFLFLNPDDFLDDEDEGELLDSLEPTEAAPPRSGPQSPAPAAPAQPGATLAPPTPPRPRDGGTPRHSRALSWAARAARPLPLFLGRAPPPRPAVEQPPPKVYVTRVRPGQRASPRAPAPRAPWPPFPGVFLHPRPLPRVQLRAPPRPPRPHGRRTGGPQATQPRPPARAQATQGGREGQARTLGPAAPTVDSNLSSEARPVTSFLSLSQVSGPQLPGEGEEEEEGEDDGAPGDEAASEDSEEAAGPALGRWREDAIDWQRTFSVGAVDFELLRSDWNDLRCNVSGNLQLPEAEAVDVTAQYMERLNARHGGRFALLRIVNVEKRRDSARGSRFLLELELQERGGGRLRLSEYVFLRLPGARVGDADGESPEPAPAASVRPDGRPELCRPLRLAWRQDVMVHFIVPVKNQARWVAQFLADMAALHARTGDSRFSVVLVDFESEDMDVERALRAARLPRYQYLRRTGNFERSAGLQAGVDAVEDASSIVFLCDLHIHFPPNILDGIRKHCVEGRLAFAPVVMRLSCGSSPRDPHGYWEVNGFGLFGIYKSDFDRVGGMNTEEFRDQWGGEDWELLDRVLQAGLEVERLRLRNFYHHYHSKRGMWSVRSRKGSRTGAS
Assay: Requirements of divalent cations in the activity
Format: biochemical
Settings: divalent cation etc. added; MES (pH 6.5); blank 263.21 subtracted
OBSERVED_PROPERTY: (A) − (B) (dpm)

Solved cases (2 shown):
>>> test_result("[Cl-].[Cl-].[Zn+2]")
"−52.92"
>>> test_result("[Ca+2].[Cl-].[Cl-]")
"−32.43"

A. [Cl][Mn][Cl]
B. O=C(O)CN(CCN(CC(=O)O)CC(=O)O)CC(=O)O
Qu. Of the two listed items, which has the higher (A) − (B)? First: A Second: B Your choice should be expressed through its label.
Ans. A
(A: 256.26 dpm, B: −20.83 dpm)

P. [Cl][Cu][Cl]
Q. [Cl-].[Cl-].[Mg+2]
Qu. Between item P and item Q , which reported (A) − (B) is smaller? Your choice should be expressed through its label.
Ans. Q
(Q: −6.85 dpm, P: 15.56 dpm)
